Assignment: determine reported Maximum fold (fold), uncrosslinked for the given binders.
Target: human CD40 on cells (human, UniProt P25942 21-277)
Sequence (P25942 21-277): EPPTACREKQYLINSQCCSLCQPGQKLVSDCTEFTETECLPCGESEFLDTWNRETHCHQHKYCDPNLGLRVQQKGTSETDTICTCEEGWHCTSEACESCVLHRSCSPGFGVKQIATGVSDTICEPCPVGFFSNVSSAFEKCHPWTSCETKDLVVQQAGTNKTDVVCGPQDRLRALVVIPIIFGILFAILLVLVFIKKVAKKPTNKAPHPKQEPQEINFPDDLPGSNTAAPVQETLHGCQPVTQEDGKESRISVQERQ
Assay: cell-based or functional assay
Just the number please, in fold, no unit attached.

Quick check: Maximum fold (fold), uncrosslinked of PR006510 (antibody, human IgG1, kappa, V domains shown, PR003379 variant L:S93R; human IgG1 L234A, L235A, G237A) VH: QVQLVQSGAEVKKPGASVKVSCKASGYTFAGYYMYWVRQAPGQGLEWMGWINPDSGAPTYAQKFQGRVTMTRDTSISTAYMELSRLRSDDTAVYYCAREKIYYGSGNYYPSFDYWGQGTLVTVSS VL: DIQLTQSPSFLSASVGDRVTITCRASQGISSYLAWYQQKPGKAPKLLIYAASTLQSGVPSRFSGSGSGTEFTLTISSLQPEDFATYYCQQLNRYPWTFGQGTKVEIKR ?
4.54

Quick check: Maximum fold (fold), uncrosslinked of PR006511 (antibody, human IgG1, kappa, V domains shown, PR003379 variant L:S93N; human IgG1 L234A, L235A, G237A) VH: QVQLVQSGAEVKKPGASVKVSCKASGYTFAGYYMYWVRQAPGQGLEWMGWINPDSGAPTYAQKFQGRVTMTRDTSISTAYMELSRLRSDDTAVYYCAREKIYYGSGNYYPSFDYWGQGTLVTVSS VL: DIQLTQSPSFLSASVGDRVTITCRASQGISSYLAWYQQKPGKAPKLLIYAASTLQSGVPSRFSGSGSGTEFTLTISSLQPEDFATYYCQQLNNYPWTFGQGTKVEIKR ?
4.5

Quick check: Maximum fold (fold), uncrosslinked of PR006500 (antibody, human IgG1, kappa, V domains shown, PR003379 variant L:N92M; human IgG1 L234A, L235A, G237A) VH: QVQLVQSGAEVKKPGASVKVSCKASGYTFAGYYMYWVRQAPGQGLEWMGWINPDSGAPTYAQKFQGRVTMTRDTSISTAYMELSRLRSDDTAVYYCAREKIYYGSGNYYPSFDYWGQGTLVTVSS VL: DIQLTQSPSFLSASVGDRVTITCRASQGISSYLAWYQQKPGKAPKLLIYAASTLQSGVPSRFSGSGSGTEFTLTISSLQPEDFATYYCQQLMSYPWTFGQGTKVEIKR ?
4.33
